Record form. Attribute: Capping rate. Fill in for each entry.
Biological target: UniProtKB P00573
Sequence (P00573 whole entry): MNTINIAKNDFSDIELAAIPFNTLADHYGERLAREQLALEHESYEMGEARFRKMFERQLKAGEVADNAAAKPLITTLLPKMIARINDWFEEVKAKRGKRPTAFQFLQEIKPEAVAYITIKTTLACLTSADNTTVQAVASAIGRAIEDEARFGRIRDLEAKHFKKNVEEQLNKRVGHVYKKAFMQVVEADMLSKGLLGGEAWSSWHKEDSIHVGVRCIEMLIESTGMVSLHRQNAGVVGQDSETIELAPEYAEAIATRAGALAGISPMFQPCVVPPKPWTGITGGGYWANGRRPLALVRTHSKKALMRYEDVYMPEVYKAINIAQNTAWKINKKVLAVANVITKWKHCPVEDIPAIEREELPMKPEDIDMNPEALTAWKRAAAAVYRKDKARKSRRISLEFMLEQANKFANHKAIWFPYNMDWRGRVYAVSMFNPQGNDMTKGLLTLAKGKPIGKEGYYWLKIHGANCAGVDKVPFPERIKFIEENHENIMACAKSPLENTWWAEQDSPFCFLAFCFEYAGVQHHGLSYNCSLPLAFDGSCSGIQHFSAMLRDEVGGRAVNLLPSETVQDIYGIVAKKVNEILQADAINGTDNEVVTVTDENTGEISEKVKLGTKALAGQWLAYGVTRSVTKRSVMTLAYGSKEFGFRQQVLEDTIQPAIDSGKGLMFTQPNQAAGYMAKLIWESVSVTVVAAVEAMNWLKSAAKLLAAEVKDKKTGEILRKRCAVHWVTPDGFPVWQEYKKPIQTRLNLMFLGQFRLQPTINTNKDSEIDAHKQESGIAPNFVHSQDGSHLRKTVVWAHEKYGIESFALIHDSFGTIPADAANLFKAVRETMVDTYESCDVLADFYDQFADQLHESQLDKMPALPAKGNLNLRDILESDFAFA
Assay: Capping rate of mRNA transcription initiated by cap analogs (LC-MS)
Format: biochemical
Settings: LC-MS of mRNA 5′ fragment
Respond with the bare value in %.

**Q:** Kindly indicate its recorded Capping rate. Item: CO[C@@H]1[C@H](OP(=O)(O)OC[C@H]2O[C@@H](n3cnc4c(=O)[nH]c(N)nc43)[C@H](O)[C@@H]2O)[C@@H](COP(=O)(O)OP(=O)(O)OP(=O)(O)OC[C@H]2O[C@@H]([n+]3cn(C)c4c(=O)[nH]c(N)nc43)[C@H](O)[C@]2(C)NC(C)=O)O[C@H]1n1cnc2c(N)ncnc21 [YK-CAP-106]
**A:** 95.3

**Q:** Kindly indicate its recorded Capping rate. Item: CO[C@@H]1[C@H](OP(=O)(O)OC[C@H]2O[C@@H](n3cnc4c(=O)[nH]c(N)nc43)[C@H](O)[C@@H]2O)[C@@H](COP(=O)(O)OP(=O)(O)OP(=O)(O)OC[C@H]2O[C@@H]([n+]3cn(C)c4c(=O)[nH]c(N)nc43)[C@H](O)[C@]2(C)C#N)O[C@H]1n1cnc2c(N)ncnc21 [YK-CAP-105]
**A:** 69.3

**Q:** Kindly indicate its recorded Capping rate. Item: COC[C@]1(COP(=O)(O)OP(=O)(O)OP(=O)(O)OC[C@H]2O[C@@H](n3cnc4c(N)ncnc43)[C@H](OC)[C@@H]2OP(=O)(O)OC[C@H]2O[C@@H](n3cnc4c(=O)[nH]c(N)nc43)[C@H](O)[C@@H]2O)O[C@@H]([n+]2cn(C)c3c(=O)[nH]c(N)nc32)[C@H](O)[C@@H]1O [YK-CAP-117]
**A:** 95.1

**Q:** Kindly indicate its recorded Capping rate. Item: CO[C@@H]1[C@H](OP(=O)(O)OC[C@H]2O[C@@H](n3cnc4c(=O)[nH]c(N)nc43)[C@H](O)[C@@H]2O)[C@@H](COP(=O)(O)OP(=O)(O)OP(=O)(O)OC[C@@]2(OC)O[C@@H]([n+]3cn(C)c4c(=O)[nH]c(N)nc43)[C@H](O)[C@@H]2O)O[C@H]1n1cnc2c(N)ncnc21 [compound 5227, reference compound]
**A:** 71.9

**Q:** Kindly indicate its recorded Capping rate. Item: COC(C)[C@H]1[C@@H](O)[C@H]([n+]2cn(C)c3c(=O)[nH]c(N)nc32)O[C@@H]1COP(=O)(O)OP(=O)(O)OP(=O)(O)OC[C@H]1O[C@@H](n2cnc3c(N)ncnc32)[C@H](OC)[C@@H]1OP(=O)(O)OC[C@H]1O[C@@H](n2cnc3c(=O)[nH]c(N)nc32)[C@H](O)[C@@H]1O (some centres unmarked) [YK-CAP-107]
**A:** 97.3

**Q:** Kindly indicate its recorded Capping rate. Item: CO[C@@H]1[C@H](OP(=O)(O)OC[C@H]2O[C@@H](n3cnc4c(=O)[nH]c(N)nc43)[C@H](O)[C@@H]2O)[C@@H](COP(=O)(O)OP(=O)(O)OP(=O)(O)OC[C@H]2O[C@@H](C[n+]3cn(C)c4c(=O)[nH]c(N)nc43)[C@H](O)[C@@H]2O)O[C@H]1n1cnc2c(N)ncnc21 [YK-CAP-103]
**A:** 71.1

**Q:** Kindly indicate its recorded Capping rate. Item: COC1[C@H](n2cnc3c(N)ncnc32)O[C@H](COP(=O)(O)OP(=O)(O)OP(=O)(O)OC[C@@]23COC([C@H]([n+]4cn(C)c5c(=O)[nH]c(N)nc54)O2)[C@H]3O)[C@H]1OP(=O)(O)OCC1OC(n2cnc3c(=O)[nH]c(N)nc32)C(O)C1O (some centres unmarked) [Compound 14, reference compound]
**A:** 78.3

**Q:** Kindly indicate its recorded Capping rate. Item: CO[C@@H]1[C@H](OP(=O)(O)OC[C@H]2O[C@@H](n3cnc4c(=O)[nH]c(N)nc43)[C@H](O)[C@@H]2O)[C@@H](COP(=O)(O)OP(=O)(O)OP(=O)(O)OC[C@H]2O[C@@H]([n+]3cn(C)c4c(=O)[nH]c(N)nc43)[C@H](O)[C@]2(F)CN(C)C)O[C@H]1n1cnc2c(N)ncnc21 [YK-CAP-104]
**A:** 77.2

**Q:** Kindly indicate its recorded Capping rate. Item: COC[C@@H]1[C@H](OP(=O)(O)OC[C@H]2O[C@@H](n3cnc4c(=O)[nH]c(N)nc43)[C@H](O)[C@@H]2O)[C@@H](COP(=O)(O)OP(=O)(O)OP(=O)(O)OC[C@H]2O[C@@H]([n+]3cn(C)c4c(=O)[nH]c(N)nc43)[C@H](O)[C@@H]2O)O[C@H]1n1cnc2c(N)ncnc21 [YK-CAP-113]
**A:** 95.2

**Q:** Kindly indicate its recorded Capping rate. Item: CO[C@@H]1[C@H](OP(=O)(O)OC[C@H]2O[C@@H](n3cnc4c(=O)[nH]c(N)nc43)[C@H](O)[C@@H]2O)[C@@H](COP(=O)(O)OP(=O)(O)OP(=O)(O)OC[C@@]2(CF)O[C@@H]([n+]3cn(C)c4c(=O)[nH]c(N)nc43)[C@H](O)[C@@H]2O)O[C@H]1n1cnc2c(N)ncnc21 [YK-CAP-118]
**A:** 97.2

**Q:** Kindly indicate its recorded Capping rate. Item: CO[C@@H]1[C@H](OP(=O)(O)OC[C@H]2O[C@@H](n3cnc4c(=O)[nH]c(N)nc43)[C@H](O)[C@@H]2O)[C@@H](COP(=O)(O)OP(=O)(O)OP(=O)(O)OC[C@H]2O[C@@H]([n+]3cn(C)c4c(=O)[nH]c(N)nc43)[C@H](O)[C@@H]2C(F)F)O[C@H]1n1cnc2c(N)ncnc21 [YK-CAP-110]
**A:** 97.4

**Q:** Kindly indicate its recorded Capping rate. Item: CCN(CC)C(=O)[C@H]1[C@@H](O)[C@H]([n+]2cn(C)c3c(=O)[nH]c(N)nc32)O[C@@H]1COP(=O)(O)OP(=O)(O)OP(=O)(O)OC[C@H]1O[C@@H](n2cnc3c(N)ncnc32)[C@H](OC)[C@@H]1OP(=O)(O)OC[C@H]1O[C@@H](n2cnc3c(=O)[nH]c(N)nc32)[C@H](O)[C@@H]1O [YK-CAP-111]
**A:** 98.1

**Q:** Kindly indicate its recorded Capping rate. Item: CO[C@@H]1[C@H](OP(=O)(O)OC[C@H]2O[C@@H](n3cnc4c(=O)[nH]c(N)nc43)[C@H](O)[C@@H]2O)[C@@H](COP(=O)(O)OP(=O)(O)OP(=O)(O)OC[C@H]2OC([n+]3cn(C)c4c(=O)[nH]c(N)nc43)[C@H](O)[C@@H](O)[C@@H]2O)O[C@H]1n1cnc2c(N)ncnc21 (some centres unmarked) [YK-CAP-101]
**A:** 42.8

**Q:** Kindly indicate its recorded Capping rate. Item: CO[C@@H]1[C@H](OP(=O)(O)OC[C@H]2O[C@@H](n3cnc4c(=O)[nH]c(N)nc43)[C@H](O)[C@@H]2O)[C@@H](COP(=O)(O)OP(=O)(O)OP(=O)(O)OC[C@H]2O[C@@H]([n+]3cn(C)c4c(=O)[nH]c(N)nc43)[C@H](O)[C@@H]2C(C)F)O[C@H]1n1cnc2c(N)ncnc21 (some centres unmarked) [YK-CAP-109]
**A:** 95.2
